Attribution: patent US20250353833A1

experimental-target: DPP8 (Homo sapiens (Human))
Sequence (Q6V1X1 whole entry): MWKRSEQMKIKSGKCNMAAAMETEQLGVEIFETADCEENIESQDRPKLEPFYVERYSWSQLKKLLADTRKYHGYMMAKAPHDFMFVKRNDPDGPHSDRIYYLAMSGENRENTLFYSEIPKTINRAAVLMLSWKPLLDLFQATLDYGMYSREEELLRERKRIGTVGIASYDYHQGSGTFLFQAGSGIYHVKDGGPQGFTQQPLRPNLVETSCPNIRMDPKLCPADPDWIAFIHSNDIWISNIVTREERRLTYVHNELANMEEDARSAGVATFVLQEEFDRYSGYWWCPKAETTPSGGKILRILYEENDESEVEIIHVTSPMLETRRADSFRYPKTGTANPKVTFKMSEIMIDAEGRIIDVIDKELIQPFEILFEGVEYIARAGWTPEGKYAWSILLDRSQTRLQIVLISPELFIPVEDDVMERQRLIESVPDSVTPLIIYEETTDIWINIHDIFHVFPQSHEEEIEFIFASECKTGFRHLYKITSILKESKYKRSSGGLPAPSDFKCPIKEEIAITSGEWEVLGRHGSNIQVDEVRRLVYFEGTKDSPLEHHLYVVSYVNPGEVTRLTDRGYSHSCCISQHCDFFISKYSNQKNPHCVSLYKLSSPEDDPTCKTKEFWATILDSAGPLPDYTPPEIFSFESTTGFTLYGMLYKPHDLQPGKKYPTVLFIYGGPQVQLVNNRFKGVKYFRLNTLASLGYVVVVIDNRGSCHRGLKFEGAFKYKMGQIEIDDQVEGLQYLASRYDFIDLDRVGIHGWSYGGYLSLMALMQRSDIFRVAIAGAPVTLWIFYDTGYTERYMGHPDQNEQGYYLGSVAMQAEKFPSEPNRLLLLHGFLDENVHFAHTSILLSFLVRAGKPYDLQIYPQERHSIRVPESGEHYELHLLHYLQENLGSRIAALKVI
assay-overview: DPP8 enzyme inhibition, IC50 measurement (Ala-Pro-pNA release)
Format: biochemical
measurement-setup: Table 1; mean ± SD (n = 3); read-out: IC50 DPP8
pIC50: −log10 of the molar value.
Respond with Satisfied for pIC50 values of 6 and above, Not satisfied for values below.

1. N#C[C@@H]1[C@@H]2C[C@@H]2CN1C(=O)CNC12CC3CC(C1)CC(OCc1ccc(F)cc1F)(C3)C2: Not satisfied
2. N#C[C@@H]1C[C@H](N=[N+]=[N-])CN1C(=O)CNC12CC3CC(CC(O)(C3)C1)C2: Satisfied
3. C=C1C[C@@H](C#N)N(C(=O)CNC23CC4CC(C2)CC(OCc2ccccc2)(C4)C3)C1: Satisfied
4. N#C[C@@H]1C[C@H](N=[N+]=[N-])CN1C(=O)CNC12CC3CC(C1)CC(OCc1ccc(F)cc1F)(C3)C2: Satisfied
5. N#C[C@@H]1CCCN1C(=O)CNC12CC3CC(C1)CC(OCc1ccc(F)cc1F)(C3)C2: Satisfied
